System: E. multilocularis metacestode vesicles
Test: Metacestode vesicle viability assay (ATP, CellTiter-Glo)
Assay type: cell-based, Echinococcus multilocularis
Conditions: overview screen, 10 μM, singlets, 12 days, relative to DMSO control

- compound: "CCc1nc(N)nc(N)c1C#CCc1ccccc1"
  Viability d12 (relative viability) (%): 82.8379
- compound: "CNc1nc(=O)[nH]cc1F"
  Viability d12 (relative viability) (%): 224.858
- compound: "Fc1ccc(-n2cc(Cn3c(-c4cccc(F)c4)nc4ccccc43)nn2)cc1"
  Viability d12 (relative viability) (%): 34.9853
- compound: "Fc1ccc2c(/C=C/c3nnn[nH]3)c[nH]c2c1"
  Viability d12 (relative viability) (%): 20.2898
- compound: "Cc1nc(-c2ccc(C3N(C)c4ccc(F)cc4C(=O)N3c3ccccc3)s2)cs1 (stereo not drawn)"
  Viability d12 (relative viability) (%): 101.198
- compound: "COc1ccc2sc3c(c2c1)NC(C)CNC3=O (stereo not drawn)"
  Viability d12 (relative viability) (%): 114.23

====

System: E. multilocularis metacestode vesicles
Test: Metacestode vesicle viability assay (ATP, CellTiter-Glo)
Format: cell-based, Echinococcus multilocularis
Settings: overview screen, 10 μM, singlets, 12 days, relative to DMSO control
measureName: Viability d12 (relative viability) (%)

- compound: "NC(=O)C(c1ccccc1)(c1ccccc1)[C@H]1CCCN(CCc2ccc3c(c2)CCO3)C1"
  units: "%"
  valueMeasured: 220.792
- compound: "O=C(c1cc(O)nc2ccccc12)N1CCN(c2ccccc2)CC1"
  units: "%"
  valueMeasured: 136.964
- compound: "O=S(=O)(Nc1cccc2cccnc12)c1ccccc1"
  units: "%"
  valueMeasured: 2.254
- compound: "COc1ccccc1CN[C@H]1C2CCN(CC2)[C@H]1C(c1ccccc1)c1ccccc1"
  units: "%"
  valueMeasured: 61.0456
- compound: "Oc1c(C(Nc2nc3ccccc3s2)c2ccc(OC(F)F)cc2)ccc2cccnc12 (stereo not drawn)"
  units: "%"
  valueMeasured: 220.792
- compound: "CC1CN(c2ncnc3c2c(-c2ccccc2)cn3-c2ccc(F)cc2)CC(C)O1 (stereo not drawn)"
  units: "%"
  valueMeasured: 6.513
- compound: "CCN(CC)CCn1c(=N)n(CC(O)COc2ccc(Cl)cc2Cl)c2ccccc21 (stereo not drawn)"
  units: "%"
  valueMeasured: 72.9764
- compound: "COc1ccc(C(C)(C)C)cc1NC(=O)C(=O)c1ccc(OCCN2CCOCC2)c2ccccc12"
  units: "%"
  valueMeasured: 152.31
- compound: "CC(Cc1ccccc1)C(=O)Nc1ccc(Cl)cc1C(=O)O (stereo not drawn)"
  units: "%"
  valueMeasured: 82.6324

====

Listed below: PGI d5 (relative PGI release) values for each entry.
Test system: E. multilocularis metacestode vesicles
Experiment: Phosphoglucose isomerase (PGI) release assay (damage-marker release) on metacestode vesicles
Assay type: cell-based, Echinococcus multilocularis
Settings: overview screen, 10 μM, singlets, 5 days, relative to 0.1 % Triton X-100, DMSO subtracted
measureName: PGI d5 (relative PGI release) (%)

- compound: "Oc1cc(-c2cccc3ccccc23)[nH]n1"
  measuredTarget: "E. multilocularis metacestode vesicles"
  valueMeasured: -1.4338
- compound: "O=C(c1nc2c(C(F)(F)F)cc(C3CC3)cn2c1Cl)N1CCN([C@H]2CC[C@H](O)CC2)C(=O)C1"
  measuredTarget: "E. multilocularis metacestode vesicles"
  valueMeasured: 0.0006202
- compound: "COC1CC2CCC(C)C(O)(O2)C(=O)C(=O)N2CCCCC2C(=O)OC(C(C)CC2CCC(OCCO)C(OC)C2)CC(=O)C(C)/C=C(\\C)C(O)C(OC)C(=O)C(C)CC(C)/C=C/C=C/C=C/1C (centres unmarked)"
  measuredTarget: "E. multilocularis metacestode vesicles"
  valueMeasured: -0.3944
- compound: "CCc1cc(CCCOc2c(C)cc(-c3noc(C(F)(F)F)n3)cc2C)on1"
  measuredTarget: "E. multilocularis metacestode vesicles"
  valueMeasured: 0.6182
- compound: "Nc1ccc(-c2nc3cc(C(F)(F)F)ccc3n2C23CC4CC(CC(C4)C2)C3)cc1"
  measuredTarget: "E. multilocularis metacestode vesicles"
  valueMeasured: 1.378
- compound: "CCN1CCN(Cc2nc3ccc([N+](=O)[O-])cc3c(=O)n2-c2ccccc2F)CC1"
  measuredTarget: "E. multilocularis metacestode vesicles"
  valueMeasured: 0.006823
- compound: "CCC(C)(C)c1ccc(CC(C)CN2C[C@@H](C)O[C@@H](C)C2)cc1.Cl (some centres unmarked)"
  measuredTarget: "E. multilocularis metacestode vesicles"
  valueMeasured: 0.7921
- compound: "O=C(c1ccc(F)cc1)N1CCN2C(=O)c3ccccc3C12c1ccccc1 (centres unmarked)"
  measuredTarget: "E. multilocularis metacestode vesicles"
  valueMeasured: 6.429

====

Listed below: PGI d5 (relative PGI release) values for each entry.
System: E. multilocularis metacestode vesicles
Test: Phosphoglucose isomerase (PGI) release assay (damage-marker release) on metacestode vesicles
Format: cell-based, Echinococcus multilocularis
Settings: overview screen, 10 μM, singlets, 5 days, relative to 0.1 % Triton X-100, DMSO subtracted
measureName: PGI d5 (relative PGI release) (%)

- compound: "O=C(NCc1ccc2c3c(cccc13)C(=O)N2)c1cccs1"
  units: "%"
  valueMeasured: -1.3816
- compound: "CCCCOC(=O)Nc1cc2nc(C3CCCCC3)[nH]c2cc1N(CC)CC"
  units: "%"
  valueMeasured: 1.645
- compound: "O=C(O)C[C@H]1CC[C@H](c2ccc(-c3ccc(Nc4ccc(C(F)(F)F)nc4)cn3)cc2)CC1"
  units: "%"
  valueMeasured: 0.9992
- compound: "CCCCc1ccc(-c2nc(C)c(C(=O)OC)s2)cc1"
  units: "%"
  valueMeasured: 0.3728
- compound: "C/C(=N\\NC(=O)C1CC1c1ccccc1)c1ccc(NC(=O)c2ccco2)cc1 (stereo not drawn)"
  units: "%"
  valueMeasured: -1.203
- compound: "Clc1cc2nc(C3CCNCC3)n(Cc3ccc(CNCCc4c[nH]cn4)cc3)c2cc1Cl"
  units: "%"
  valueMeasured: -1.296
- compound: "CCNC(=O)Nc1cc2c(-c3ccnc(C)c3)ccc(CNC(=O)OC)c2cn1"
  units: "%"
  valueMeasured: 1.116
- compound: "CCc1cc(CCC(=O)Nc2ccccc2O)c(=O)[nH]c1C"
  units: "%"
  valueMeasured: 1.217
- compound: "O=C(O)c1ccc(-c2ccc(O[C@H]3O[C@H](CO)[C@@H](O)[C@H](O)[C@@H]3O)cc2)cc1"
  units: "%"
  valueMeasured: 0.1129
- compound: "COC(=O)Nc1nc2c(C)cccc2[nH]1"
  units: "%"
  valueMeasured: -0.1734
- compound: "COC(=O)Nc1nc2ccccc2[nH]1"
  units: "%"
  valueMeasured: 6.336
- compound: "O=C(O)c1ccccc1Sc1ncnc2sc3c(c12)CCC3"
  units: "%"
  valueMeasured: -1.729
- compound: "Cc1nc(Nc2ccc(F)cc2)nc(N2CCc3ccccc3C2C)c1C (stereo not drawn)"
  units: "%"
  valueMeasured: -1.879
- compound: "O=C(Nc1ccccc1C(=O)O)c1cccc(Oc2ccccc2)c1"
  units: "%"
  valueMeasured: 0.07516
- compound: "O=C(O)c1sccc1S(=O)(=O)n1ccc2cc(Br)ccc21"
  units: "%"
  valueMeasured: 0.195
- compound: "Cc1ccn2c(C(=O)NCc3ccccc3)c(C)nc2c1"
  units: "%"
  valueMeasured: -1.164
- compound: "CCN(CC)CCn1c(=N)n(CC(O)COc2ccc(Cl)cc2Cl)c2ccccc21 (stereo not drawn)"
  units: "%"
  valueMeasured: -2.18
- compound: "O=c1nc(N2CCN(CC3CCCCC3)CC2)sc2c([N+](=O)[O-])cc(C(F)(F)F)cc12"
  units: "%"
  valueMeasured: 15.7367
- compound: "O=C(NC(=O)N1CCCc2ccccc21)c1cccc(Cl)c1"
  units: "%"
  valueMeasured: -2.457
- compound: "COc1ccc(C(C)(C)C)cc1NC(=O)C(=O)c1ccc(OCCN2CCOCC2)c2ccccc12"
  units: "%"
  valueMeasured: 0.2921
- compound: "CC[C@@]1(O)C(=O)OCc2c1cc1n(c2=O)Cc2cc3c(CN(C)C)c(O)ccc3nc2-1.Cl"
  units: "%"
  valueMeasured: 0.263
- compound: "Cc1cc(Nc2ccc(F)cc2)nc(SCc2nc3ccccc3[nH]2)n1"
  units: "%"
  valueMeasured: 0.3642
- compound: "Oc1cccc(C(Nc2nccs2)c2ccc3cccnc3c2O)c1 (stereo not drawn)"
  units: "%"
  valueMeasured: 8.475
- compound: "CC(C)C(=O)N[C@H]1[C@H]([C@H](O)[C@H](O)CO)OC(C(=O)O)=C[C@@H]1N=[N+]=[N-]"
  units: "%"
  valueMeasured: -0.6196
